test system: T-24; assay: Inhibition Human T24 bladder carcinoma cells; assay type: functional, cell-based
Recorded metric: IC50

GET /values?item= C/C(=N\N=C(N)N)c1cccc(C(=N)N)n1 &system= T-24 returns IC50: 23200 nM

I looked up N=C(N)N/N=C1\CCc2c(C(=N)N)cccc21 [SARDOMOZIDE CHLORIDE] and its IC50 for T-24 was 710 nM

Tested system T-24; IC50 recorded for CC(/C=N/NC(=N)N)=N/NC(=N)N was 1130 nM

Param item: C/C(=N\N=C(N)N)c1cc(C(=N)N)ccn1 ; param system: T-24; output IC50: > 152000 nM

###

assay: Inhibitory activity against diamine oxidase (DAO) from rat small intestine; assay type: tissue-based
Recorded metric: IC50 (µM)
I only need the number, in µM, no unit after it.

Use the examples below as a reference point.
| Compound | Uom | IC50 |
| --- | --- | --- |
| N=C(N)N/N=C1\CCc2c(C(=N)N)cccc21 [SARDOMOZIDE CHLORIDE] | µM | 18 |
| C/C(=N\N=C(N)N)c1cc(C(=N)N)ccn1 | µM | 8.5 |
| CC(/C=N/NC(=N)N)=N/NC(=N)N | µM | 1.9 |

Next, consider the following compound.
Measured IC50, C/C(=N\N=C(N)N)c1cccc(C(=N)N)n1 : 5.8

Attribution: ChEMBL document CHEMBL1126748
